tested on: RXF 393 renal; test: NCI tumour cell line growth inhibition, 48 h
This listing pairs compounds with measured TGI.

[
  {
    "Compound": "CCCSc1ccc2[nH]c(N3C(=O)/C(=C/c4ccc(SC)cc4)N=C3c3ccccc3)cc2c1",
    "Assayed Target": "RXF 393 renal",
    "Qualifier Symbol": ">",
    "TGI / µM": 46.6
  },
  {
    "Compound": "Cn1c2ccccc2c(=O)c2c(O)cc3c(c21)C=CC(C)(C)O3",
    "Assayed Target": "RXF 393 renal",
    "Qualifier Symbol": ">",
    "TGI / µM": 25
  },
  {
    "Compound": "COc1ccccc1C(O)[C@@H]1C[C@@H]2[C@H]3CC[C@@](C)([C@@H]2O1)C3(C)C (some centres undefined)",
    "Assayed Target": "RXF 393 renal",
    "Qualifier Symbol": "=",
    "TGI / µM": 32.6
  },
  {
    "Compound": "O=C1c2ccccc2-c2c1c1ccccc1c(=O)n2CCCNCCn1c2c(c3ccccc3c1=O)C(=O)c1ccccc1-2",
    "Assayed Target": "RXF 393 renal",
    "Qualifier Symbol": "=",
    "TGI / µM": 13.9
  },
  {
    "Compound": "CCCCCC/C=C\\CCCCCCCCCC1=C(CN2CCN(C)CC2)C(=O)C=C(OC)C1=O",
    "Assayed Target": "RXF 393 renal",
    "Qualifier Symbol": "=",
    "TGI / µM": 6.72
  },
  {
    "Compound": "C=CCC(N[C@@H](CO)c1ccccc1)c1cn(C(=O)OCC)c2ccccc12 (some centres undefined)",
    "Assayed Target": "RXF 393 renal",
    "Qualifier Symbol": "=",
    "TGI / µM": 84.2
  },
  {
    "Compound": "CCOC(=O)c1nc2cc(C(F)(F)F)ccc2nc1Nc1ccc(C(=O)OC)s1",
    "Assayed Target": "RXF 393 renal",
    "Qualifier Symbol": "=",
    "TGI / µM": 50.8
  },
  {
    "Compound": "COc1ccccc1/C=C/C1=NN(c2cccc(S(=O)(=O)O)c2)C2(C1)C(Cl)C(=O)N2c1nc2ccccc2s1 (centres undefined)",
    "Assayed Target": "RXF 393 renal",
    "Qualifier Symbol": ">",
    "TGI / µM": 87
  },
  {
    "Compound": "Cc1cc(C)c(-c2noc(-c3ccc(Cl)cc3)c2C2=NCCCN2)c(C)c1",
    "Assayed Target": "RXF 393 renal",
    "Qualifier Symbol": "=",
    "TGI / µM": 48.5
  }
]
